The values you see were collected from patent US20210403593A1.

# SUBJECT_OF_TEST: T1, human CD39 (cellular) (human, UniProt P49961 1-510)
# T1 construct: Same protein on engineered CHO cells and on cells that express it endogenously; also called hCD39; cellular CD39
# T1 sequence: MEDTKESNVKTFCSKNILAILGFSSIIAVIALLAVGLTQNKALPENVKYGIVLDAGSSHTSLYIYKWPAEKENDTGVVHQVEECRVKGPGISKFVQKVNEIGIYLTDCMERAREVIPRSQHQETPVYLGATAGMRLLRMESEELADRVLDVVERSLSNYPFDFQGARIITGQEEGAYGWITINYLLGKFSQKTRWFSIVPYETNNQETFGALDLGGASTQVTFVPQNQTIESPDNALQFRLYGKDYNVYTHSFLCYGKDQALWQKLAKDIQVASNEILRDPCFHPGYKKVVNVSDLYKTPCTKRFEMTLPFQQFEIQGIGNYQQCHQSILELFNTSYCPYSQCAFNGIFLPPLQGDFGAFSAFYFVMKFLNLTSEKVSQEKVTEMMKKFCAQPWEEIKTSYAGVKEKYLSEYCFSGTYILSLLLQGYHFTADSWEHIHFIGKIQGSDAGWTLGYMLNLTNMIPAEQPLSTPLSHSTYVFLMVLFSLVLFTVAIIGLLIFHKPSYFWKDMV
# TEST_METHOD_NOTES: flow cytometry, 100 nM IgG, MFI on CHO-hCD39 / MFI on parental CHO;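 further: cells exposed to IgG for 30 min on ice in PBS, bound antibody then revealed with a fluorescent goat anti-human IgG secondary (20 min, on ice)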
EXPERIMENTAL_READOUT: Cell Binding (FOB)
Provide the measurement as a number trailed by its unit.

Look over these answered cases.
BINDER	Cell Binding (FOB)
27549 (antibody, human IgG4 S228P, kappa, V domains shown) VH: QVQLVESGGGVVQPGRSLRLSCAASGFTFSSYGMNWVRQAPGKGLEWVAVIWYDGSNKYYADSVKGRFTISRDNSKNTLYLQMNSLRAEDTAVYYCARDLGGYSYGEPYYYYYGMDVWGQGTTVTVSS VL: EIVLTQSPGTLSLSPGERATLSCRASQSVSSDYLAWYQQKPGQAPRLLIYGASSRATGIPDRFSGSGSGTDFTLTISRLEPEDFAVYYCQQAHSSPYTFGGGTKVEIKR	822 fold over background
27535 (antibody, human IgG4 S228P, kappa, V domains shown) VH: QVQLVQSGAEVKKPGSSVKVSCKASGGTFSSYAISWVRQAPGQGLEWMGGIIPIFGTANYAQKFQGRVTITADESTSTAYMELSSLRSEDTAVYYCARDTPRWRYHYFDYWGQGTLVTVSS VL: EIVLTQSPATLSLSPGERATLSCRASQSVSSYLAWYQQKPGQAPRLLIYDASKRATGIPARFSGSGSGTDFTLTISSLEPEDFAVYYCQQVLNYPLTFGGGTKVEIKR	301 fold over background
27589 (antibody, human IgG4 S228P, kappa, V domains shown) VH: QVQLVQSGAEVKKPGSSVKVSCKASGGTFSSYAISWVRQAPGQGLEWMGGIIPIFGTANYAQKFQGRVTITADESTSTAYMELSSLRSEDTAVYYCARDSGYHRHYSDYWGQGTLVTVSS VL: DIQMTQSPSTLSASVGDRVTITCRASQSISSWLAWYQQKPGKAPKLLIYKASSLESGVPSRFSGSGSGTEFTLTISSLQPDDFATYYCQQYGLFPITFGGGTKVEIKR	311 fold over background
27587 (antibody, human IgG4 S228P, kappa, V domains shown) VH: QVQLVQSGAEVKKPGSSVKVSCKASGGTFSSYAISWVRQAPGQGLEWMGSIIPIFGTANYAQKFQGRVTITADESTSTAYMELSSLRSEDTAVYYCARESGGYRDHKLDVWGQGTMVTVSS VL: EIVLTQSPATLSLSPGERATLSCRASQSVSSYLAWYQQKPGQAPRLLIYDASKRATGIPARFSGSGSGTDFTLTISSLEPEDFAVYYCQQDVLWPLTFGGGTKVEIKR	1450 fold over background

Alright, here's another binder for you.
[in] Can you look up the measured Cell Binding (FOB) of 31430 (antibody, human IgG4 S228P, kappa, V domains shown) VH: QVQLVQSGAEVKKPGASVKVSCKASGYTFKSYEMHWVRQAPGQGLEWMGRINPSGGSTWYAQKFQGRVTMTRDTSTSTVYMELSSLRSEDTAVYYCARGKREGGTEYLRHWGQGTLVTVSS VL: EIVLTQSPGTLSLSPGERATLSCEASQSVSYSYLAWYQQKPGQAPRLLIYGASSRANGIPDRFSGSGSGTDFTLTISRLEPEDFAVYYCQQYHSALTFGGGTKVEIKR for me?
[out] 1220 fold over background
